- measured_target: β-secretase(BACE) (Homo sapiens)
- Construct: purchased Panvera
- Sequence (P56817 46-501): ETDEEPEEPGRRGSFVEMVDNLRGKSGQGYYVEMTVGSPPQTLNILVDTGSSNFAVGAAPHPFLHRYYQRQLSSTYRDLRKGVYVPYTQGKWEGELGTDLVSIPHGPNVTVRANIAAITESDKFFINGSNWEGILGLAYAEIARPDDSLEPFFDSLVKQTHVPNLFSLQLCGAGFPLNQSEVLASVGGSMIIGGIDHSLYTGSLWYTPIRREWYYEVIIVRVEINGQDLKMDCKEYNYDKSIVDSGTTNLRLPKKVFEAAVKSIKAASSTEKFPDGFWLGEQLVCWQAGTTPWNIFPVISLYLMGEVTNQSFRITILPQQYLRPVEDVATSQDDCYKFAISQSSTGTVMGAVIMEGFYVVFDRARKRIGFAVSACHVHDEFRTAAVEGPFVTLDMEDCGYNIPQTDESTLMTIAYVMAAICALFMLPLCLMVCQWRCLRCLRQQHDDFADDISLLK
- assay_method_text: BACE Assay-2 (FS1 substrate, IC50 and Ki)
- Format: biochemical
- details: procedure of Example 159, FS1 substrate; read-out: Ki μM (159)
Ki listing for selected molecules.
Kindly provide the numeric value in µM only, without the unit symbol.

Reference set, count: 3
>  <molecule>
NC1=Nc2ccc(Oc3ccccc3)cc2CN1C(CNC(=O)CCC1CCCC1)C1CCCCC1 (stereo not shown) [Compound 366]

>  <unit_string>
µM

>  <test_value>
0.067

$$$$
>  <molecule>
NC1=Nc2ccc(Oc3ccccc3)cc2CN1CCNC(=O)CCC1CCCC1 [Compound 140]

>  <unit_string>
µM

>  <test_value>
0.32

$$$$
>  <molecule>
Cc1cccc(Oc2ccc3c(c2)CN(Cc2cccc(C(=O)N(C)C4CCCCC4)c2)C(N)=N3)c1 [Compound 209]

>  <unit_string>
µM

>  <test_value>
0.29

$$$$

Query molecule follows.
Ki for NC1=Nc2ccc(Oc3ccccc3)cc2CN1CCNC(=O)NC12CC3CC(CC(C3)C1)C2 [Compound 206] ?
0.27
